- target-system: Dihydrolipoyl dehydrogenase (Mycobacterium tuberculosis (strain ATCC 25618 / H37Rv), UniProt P9WHH9)
- Sequence (P9WHH9 whole entry): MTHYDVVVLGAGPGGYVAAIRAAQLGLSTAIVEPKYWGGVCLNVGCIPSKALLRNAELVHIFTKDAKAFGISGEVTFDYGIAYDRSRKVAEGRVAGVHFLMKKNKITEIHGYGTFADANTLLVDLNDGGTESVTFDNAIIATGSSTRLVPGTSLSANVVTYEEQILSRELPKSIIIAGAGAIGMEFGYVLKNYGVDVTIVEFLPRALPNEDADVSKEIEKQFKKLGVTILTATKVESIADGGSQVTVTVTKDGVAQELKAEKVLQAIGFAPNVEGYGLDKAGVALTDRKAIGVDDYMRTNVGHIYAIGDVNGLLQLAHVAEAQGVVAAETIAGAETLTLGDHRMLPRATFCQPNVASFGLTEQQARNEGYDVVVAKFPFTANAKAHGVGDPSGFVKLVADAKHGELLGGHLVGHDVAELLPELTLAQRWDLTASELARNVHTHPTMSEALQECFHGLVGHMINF
- experiment-notes: LPD Assay with 30 min preincubation
pIC50: −log10 of the molar value.

chemical-structure | pIC50
CC#CCNC(=O)CN(C)S(=O)(=O)c1cc(C)cc2cc(C#N)[nH]c12 | 7.42
